Each entry below carries its measured IC50, system: Prostaglandin G/H synthase 1 (Ovis aries).

- compound: "OC[C@H]1C[C@](O)(c2ccc(Cl)cc2)[C@@H](c2ccc(Cl)cc2)O1"
  IC50: "< 10 µM"
- compound: "O=C(O)[C@H]1C[C@](O)(c2ccc(Cl)cc2)[C@@H](c2ccc(Cl)cc2)O1 (relative stereo)"
  IC50: "< 10 µM"
- compound: "OC[C@H]1C[C@](O)(c2ccccc2Cl)[C@@H](c2ccccc2Cl)O1"
  IC50: "< 10 µM"
- compound: "CS(=O)(=O)c1ccc([C@H]2O[C@@H](CO)C[C@]2(O)c2ccc(S(C)(=O)=O)cc2)cc1"
  IC50: "< 10 µM"
- compound: "COc1ccc([C@H]2O[C@@H](CO)C[C@]2(O)c2ccc(OC)cc2)cc1"
  IC50: "> 10 µM"
- compound: "O=C(O)[C@H]1C[C@](O)(c2ccccc2)[C@@H](c2ccccc2)O1 (relative stereo)"
  IC50: "> 10 µM"

====

- experimentalTarget: Prostaglandin G/H synthase 2 (Ovis aries)
- measurementConditions: at 1 µM
Recorded inhibition values for a group of compounds are listed next.

- compound: "O=C(O)[C@H]1C[C@](O)(c2ccc(F)cc2)[C@@H](c2ccc(F)cc2)O1 (relative stereo)"
  inhibition [%]: 37
- compound: "O=C(O)[C@H]1C[C@](O)(c2ccccc2Cl)[C@@H](c2ccccc2Cl)O1 (relative stereo)"
  inhibition [%]: 37
- compound: "CS(=O)(=O)c1ccc([C@H]2O[C@@H](CO)C[C@]2(O)c2ccc(S(C)(=O)=O)cc2)cc1"
  inhibition [%]: 40
- compound: "OC[C@H]1C[C@](O)(c2ccc(Cl)cc2)[C@@H](c2ccc(Cl)cc2)O1"
  inhibition [%]: 43
- compound: "OC[C@H]1C[C@](O)(c2ccccc2)[C@@H](c2ccccc2)O1"
  inhibition [%]: 28
- compound: "COc1ccc([C@H]2O[C@@H](CO)C[C@]2(O)c2ccc(OC)cc2)cc1"
  inhibition [%]: 65
- compound: "OC[C@H]1C[C@](O)(c2ccc(F)cc2)[C@@H](c2ccc(F)cc2)O1"
  inhibition [%]: 88
- compound: "OC[C@H]1C[C@](O)(c2ccccc2Cl)[C@@H](c2ccccc2Cl)O1"
  inhibition [%]: 67
- compound: "O=C(O)[C@H]1C[C@](O)(c2ccc(Cl)cc2)[C@@H](c2ccc(Cl)cc2)O1 (relative stereo)"
  inhibition [%]: 30
- compound: "O=C(O)[C@H]1C[C@](O)(c2ccccc2)[C@@H](c2ccccc2)O1 (relative stereo)"
  inhibition [%]: 68

====

- methodNotes: Selectivity ratio of IC50 for COX1 to IC50 for COX2
Recorded Ratio IC50 values for a group of molecules are listed next.
measureName: Ratio IC50

- molecule: "COc1ccc([C@H]2O[C@@H](CO)C[C@]2(O)c2ccc(OC)cc2)cc1"
  endpointValue: "> 10"
- molecule: "O=C(O)[C@H]1C[C@](O)(c2ccccc2)[C@@H](c2ccccc2)O1 (relative stereo)"
  endpointValue: "> 10"
- molecule: "OC[C@H]1C[C@](O)(c2ccc(Cl)cc2)[C@@H](c2ccc(Cl)cc2)O1"
  endpointValue: "< 3.3"
- molecule: "OC[C@H]1C[C@](O)(c2ccc(F)cc2)[C@@H](c2ccc(F)cc2)O1"
  endpointValue: "> 10"
- molecule: "OC[C@H]1C[C@](O)(c2ccccc2)[C@@H](c2ccccc2)O1"
  endpointValue: "> 1.96"
- molecule: "O=C(O)[C@H]1C[C@](O)(c2ccccc2Cl)[C@@H](c2ccccc2Cl)O1 (relative stereo)"
  endpointValue: "> 2.8"
- molecule: "CS(=O)(=O)c1ccc([C@H]2O[C@@H](CO)C[C@]2(O)c2ccc(S(C)(=O)=O)cc2)cc1"
  endpointValue: "< 1.5"
- molecule: "O=C(O)[C@H]1C[C@](O)(c2ccc(Cl)cc2)[C@@H](c2ccc(Cl)cc2)O1 (relative stereo)"
  endpointValue: "< 2.6"
- molecule: "O=C(O)[C@H]1C[C@](O)(c2ccc(F)cc2)[C@@H](c2ccc(F)cc2)O1 (relative stereo)"
  endpointValue: "> 3.1"

====

- experimentalTarget: Prostaglandin G/H synthase 2 (Ovis aries) (UniProt P79208)
- Sequence (P79208 whole entry, looked up): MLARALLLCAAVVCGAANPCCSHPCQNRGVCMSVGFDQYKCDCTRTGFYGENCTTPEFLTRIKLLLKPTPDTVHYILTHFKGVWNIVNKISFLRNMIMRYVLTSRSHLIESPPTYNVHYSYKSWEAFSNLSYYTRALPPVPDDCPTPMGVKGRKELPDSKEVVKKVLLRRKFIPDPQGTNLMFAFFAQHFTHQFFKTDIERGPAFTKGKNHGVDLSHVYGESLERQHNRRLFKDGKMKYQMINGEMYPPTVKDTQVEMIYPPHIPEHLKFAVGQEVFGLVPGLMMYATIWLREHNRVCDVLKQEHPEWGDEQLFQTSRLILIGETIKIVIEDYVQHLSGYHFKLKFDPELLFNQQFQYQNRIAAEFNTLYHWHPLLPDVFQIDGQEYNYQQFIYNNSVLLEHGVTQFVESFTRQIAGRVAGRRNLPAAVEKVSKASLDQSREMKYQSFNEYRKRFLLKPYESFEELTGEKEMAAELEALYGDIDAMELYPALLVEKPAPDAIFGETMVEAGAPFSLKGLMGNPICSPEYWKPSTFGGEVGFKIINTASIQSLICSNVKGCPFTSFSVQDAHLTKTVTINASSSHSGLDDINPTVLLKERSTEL
- measurementConditions: at 10 µM

- compound: "O=C(O)[C@H]1C[C@](O)(c2ccccc2)[C@@H](c2ccccc2)O1 (relative stereo)"
  unitsOfMeasure: "%"
  inhibition: 69
- compound: "OC[C@H]1C[C@](O)(c2ccccc2Cl)[C@@H](c2ccccc2Cl)O1"
  unitsOfMeasure: "%"
  inhibition: 68
- compound: "OC[C@H]1C[C@](O)(c2ccc(Cl)cc2)[C@@H](c2ccc(Cl)cc2)O1"
  unitsOfMeasure: "%"
  inhibition: 68
